Measured EC50 values are reported for all entries that follow.
System: T3SS-mediated translocation of ExoU by P. aeruginosa strain MDM1561 (PA99U) into CHO cells
assay-comment: P. aeruginosa ExoU-dependent CHO cell killing assay for T3SS-mediated translocation
Format: cell-based, Pseudomonas aeruginosa
run-conditions: read-out: Translocation EC50; Table 6
parameter: EC50 (µM)

{"compound": "CC(Oc1ccc(Cl)cc1Cl)C(=O)NCc1ccc2c(c1)OCO2 (centres unmarked) [MBX-1641, reference compound]", "meas-value": 15}
{"compound": "CC[C@@H](Oc1ncc(Cl)cc1Cl)C(=O)NCc1cccc(NC(=O)NC2CC3(C2)CN(CCC(=O)O)C3)c1 [MBX-5452A]", "meas-value": 2.7}
